Values were extracted from patent US20250361322A1.

- test_system: T1, human TF ECD-His6 (human, UniProt P13726 33-251)
- T1 construct: Expi293-derived; Biacore used TF-His; also called TF-His; hTF
- assay_protocol: SPR (Biacore), TF-His over coupled antibody
measure: pKd
// pKd: -log10(molar conc.)

Example entries begin here.
25A (antibody, human IgG1, V domains shown, Human IgG1; also called antibody designated 25A) VH: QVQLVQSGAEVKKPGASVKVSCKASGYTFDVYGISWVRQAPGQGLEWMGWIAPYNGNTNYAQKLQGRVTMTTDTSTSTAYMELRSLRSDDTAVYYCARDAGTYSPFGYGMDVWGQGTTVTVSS VL: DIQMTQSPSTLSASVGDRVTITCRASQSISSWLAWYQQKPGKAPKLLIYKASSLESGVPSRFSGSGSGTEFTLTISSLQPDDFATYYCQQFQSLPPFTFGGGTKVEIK | 8.21
25G (antibody, human IgG1, V domains shown, Human IgG1; also called antibody designated 25G) VH: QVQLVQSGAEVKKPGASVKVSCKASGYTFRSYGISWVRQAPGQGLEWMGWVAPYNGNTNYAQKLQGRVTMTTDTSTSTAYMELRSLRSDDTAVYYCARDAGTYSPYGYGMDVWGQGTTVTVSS VL: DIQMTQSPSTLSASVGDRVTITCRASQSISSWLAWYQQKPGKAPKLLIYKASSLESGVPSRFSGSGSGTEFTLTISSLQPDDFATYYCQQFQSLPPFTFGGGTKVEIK | 7.64

(Q) Which pKd is reported for this binder? 25G9 (antibody, human IgG1, V domains shown, Human IgG1; also called antibody designated 25G9) VH: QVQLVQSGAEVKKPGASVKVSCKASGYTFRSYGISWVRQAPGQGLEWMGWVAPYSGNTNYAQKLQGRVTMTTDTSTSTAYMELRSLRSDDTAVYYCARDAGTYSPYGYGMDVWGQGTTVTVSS VL: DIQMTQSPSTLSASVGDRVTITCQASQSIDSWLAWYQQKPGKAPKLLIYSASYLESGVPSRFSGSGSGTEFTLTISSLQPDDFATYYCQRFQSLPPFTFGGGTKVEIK
(A) 7.88
